Below is a list of entries, each paired with its recorded IC50 value.
Molecular target: AAK1 (Homo sapiens, UniProt Q2M2I8)
Construct: HA; expressed in transfected cells; host or cells: HEK293F
Sequence (Q2M2I8 1-863 isoform Q2M2I8-2): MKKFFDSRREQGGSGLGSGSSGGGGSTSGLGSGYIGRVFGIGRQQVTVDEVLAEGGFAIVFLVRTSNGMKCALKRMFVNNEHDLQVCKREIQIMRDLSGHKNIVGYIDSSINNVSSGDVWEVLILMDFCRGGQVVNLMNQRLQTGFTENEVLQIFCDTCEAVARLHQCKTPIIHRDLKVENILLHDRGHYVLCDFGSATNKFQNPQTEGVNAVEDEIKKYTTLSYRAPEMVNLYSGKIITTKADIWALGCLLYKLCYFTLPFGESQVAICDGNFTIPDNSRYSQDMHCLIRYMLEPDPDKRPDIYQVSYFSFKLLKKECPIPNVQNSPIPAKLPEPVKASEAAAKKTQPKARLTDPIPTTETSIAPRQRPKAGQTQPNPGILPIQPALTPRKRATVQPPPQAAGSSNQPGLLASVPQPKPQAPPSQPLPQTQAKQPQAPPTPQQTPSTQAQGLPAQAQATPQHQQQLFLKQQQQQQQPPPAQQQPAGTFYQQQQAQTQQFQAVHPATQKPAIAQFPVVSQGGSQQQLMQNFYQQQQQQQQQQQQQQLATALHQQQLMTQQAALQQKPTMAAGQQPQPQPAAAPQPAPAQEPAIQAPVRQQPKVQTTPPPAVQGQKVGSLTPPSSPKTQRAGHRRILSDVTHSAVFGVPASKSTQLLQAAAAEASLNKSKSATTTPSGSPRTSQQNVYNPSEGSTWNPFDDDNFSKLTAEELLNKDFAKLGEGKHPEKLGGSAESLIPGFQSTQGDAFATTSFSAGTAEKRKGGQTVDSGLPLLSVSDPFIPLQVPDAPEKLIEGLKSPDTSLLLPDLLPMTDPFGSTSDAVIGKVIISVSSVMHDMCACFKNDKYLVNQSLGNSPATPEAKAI
Experiment: P81 filter plate assay
Format: biochemical
Settings: full-length human AAK1, Mu2 substrate
Description: Compounds were serially diluted into a Labcyte LDV plate (Labcyte, cat#LP-0200) using a Mutiprobe (PerkinElmer) and Biomek FX (Beckman Coulter) so that the highest compound concentration was at 96 μM. […] The bottom of each filter plate was sealed followed by addition of 20 μl Microscint 40 to each well, sealing the top of the plates with Flashplate cover, and then waiting one hour until reading on the TopCount (PerkinElmer).

Past entries and their recorded results:
CC(C)CC(=O)N1CCC[C@H]1CNc1ccc2ncc(-c3ccc(C#N)cc3)n2n1 | ≤ 10 nM
CCCOC(=O)N1CCC[C@H]1CNc1ccc2ncc(Br)n2n1 | ≤ 10 nM

Now, please, on to the next compound.
Summary: CCOC(=O)N(C)[C@H]1CCN(c2ccc3ncc(-c4cc(F)ccc4OC)n3n2)C1 , AAK1 (Homo sapiens, UniProt Q2M2I8), IC50 = ≤ 10 nM

====

Below is a list of entries, each paired with its recorded IC50 value.
biological target: AAK1 (Homo sapiens); construct: HA; expressed in transfected cells; host or cells: HEK293F; test: HEK281 cell-based assay (phospho-mu2 Western blot in transfected HEK293F cells); details: 3 hours incubation, read-out: CBA IC50

CC(C)(C)OC(=O)N1CCCC1CCNc1ccc2ncc(-c3ccc(C(N)=O)cc3)n2n1 (stereo not drawn) | ≤ 100 nM
COc1ncccc1-c1cnc2ccc(NC[C@@H]3CCC(=O)N3CCC(C)(C)C)nn12 | ≤ 10 nM
CCCCNc1ccc2ncc(-c3ccnc(N)c3)n2n1 | ≤ 1000 nM
CC(C)(C)OC(=O)NCCNc1ccc2ncc(-c3ccc(CN)cc3)n2n1 | ≤ 100 nM
COc1ccccc1-c1cnc2ccc(N3CCC(N(C)C(=O)OC(C)(C)C)C3)nn12 (stereo not drawn) | ≤ 1000 nM

Just so you know, measured IC50 for CC(C)OCCNc1ccc2ncc(-c3ccc(C4CCCN4)cc3)n2n1 (stereo not drawn) came out at ≤ 100 nM

Just so you know, measured IC50 for c1cc2c(cc1-c1cnc3ccc(NCCOC4CCCC4)nn13)OCO2 came out at ≤ 1000 nM

Just so you know, measured IC50 for COc1ncccc1-c1cnc2ccc(N3CCN(C(=O)[C@@H](N)CC(C)C)CC3)nn12 came out at ≤ 10 nM

Just so you know, measured IC50 for CCOC(=O)N1CCN(c2ccc3ncc(-c4ccccc4)n3n2)CC1 came out at ≤ 100 nM

====

Below is a list of entries, each paired with its recorded pIC50 value.
molecular target: AAK1 (Homo sapiens, UniProt Q2M2I8); construct: HA; expressed in transfected cells; host or cells: HEK293F; assay: HEK281 cell-based assay (phospho-mu2 Western blot in transfected HEK293F cells); details: 3 hours incubation, read-out: CBA IC50
pIC50: −log10 of the molar value.

Past entries and their recorded results:
COc1cc(-c2cnc3ccc(N4CCN(C(=O)OC(C)C)CC4)nn23)ccn1 | ≥ 7.00
CC(C)N(CCNc1ccc2ncc(-c3ccc(C(N)=O)cc3)n2n1)C(=O)OC(C)(C)C | ≥ 8.00

Just so you know, measured pIC50 for C=Cc1cnc2ccc(NC[C@@H]3CCCN3C(=O)OC(C)C)nn12 came out at ≥ 8.00

Just so you know, measured pIC50 for CCOC(=O)N(C)CCNc1ccc2ncc(-c3ccncc3OC)n2n1 came out at ≥ 8.00

Just so you know, measured pIC50 for CC(C)OC(=O)N1CCN(c2ccc3ncc(-c4ccncc4)n3n2)CC1 came out at ≥ 7.00

Just so you know, measured pIC50 for COC(=O)N(CCNc1ccc2ncc(-c3ccncc3OC)n2n1)C(C)C came out at ≥ 8.00

Just so you know, measured pIC50 for CC(C)OC(=O)N1CCN(c2ccc3ncc(-c4ccc(CN)cc4)n3n2)CC1 came out at ≥ 8.00

Just so you know, measured pIC50 for CC(C)OC(=O)N(C)[C@H]1CCN(c2ccc3ncc(-c4cccnc4)n3n2)C1 came out at ≥ 7.00
